# Test system: MDA-MB-231 breast
# TEST DESCRIPTION: NCI tumour cell line growth inhibition, 48 h
Below, each entry is listed alongside its reported TGI.

COMPOUND: COC(=O)c1cnc(Cl)c([N+](=O)[O-])c1
TESTED ON: MDA-MB-231 breast
RESULT MODIFIER: =
TGI [µM]: 30.1
--
COMPOUND: CCc1n[nH]c(=O)n1O
TESTED ON: MDA-MB-231 breast
RESULT MODIFIER: >
TGI [µM]: 100
--
COMPOUND: CC(=O)NC1C(OCc2ccccc2)OC(CO)C(O)C1OC(C)C(=O)NC(C)C(=O)N[C@@H](CCC(=O)OCCCNC1c2ccccc2Nc2cccc([N+](=O)[O-])c21)C(N)=O (stereo not given in full)
TESTED ON: MDA-MB-231 breast
RESULT MODIFIER: =
TGI [µM]: 0.074
--
COMPOUND: CCN(CC)CC(O)CNc1c2ccc(Cl)cc2nc2ccc(OC)cc12 (stereo not given)
TESTED ON: MDA-MB-231 breast
RESULT MODIFIER: =
TGI [µM]: 3.06
--
COMPOUND: OC(COc1cccc2ccccc12)CN1CCOCC1 (stereo not given)
TESTED ON: MDA-MB-231 breast
RESULT MODIFIER: >
TGI [µM]: 100
